assayed_system: Growth hormone secretagogue receptor type 1 (Homo sapiens)
Sequence (Q92847 whole entry): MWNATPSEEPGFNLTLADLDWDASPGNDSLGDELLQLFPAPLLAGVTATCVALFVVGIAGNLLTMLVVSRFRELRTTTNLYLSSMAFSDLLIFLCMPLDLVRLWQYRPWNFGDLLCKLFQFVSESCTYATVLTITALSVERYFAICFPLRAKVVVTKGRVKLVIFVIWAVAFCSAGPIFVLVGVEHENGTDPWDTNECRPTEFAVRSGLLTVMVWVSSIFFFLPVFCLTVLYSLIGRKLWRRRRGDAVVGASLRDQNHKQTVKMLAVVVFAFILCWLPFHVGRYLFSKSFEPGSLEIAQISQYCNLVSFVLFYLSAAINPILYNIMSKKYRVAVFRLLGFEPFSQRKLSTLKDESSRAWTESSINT
method_description: Antagonist activity at human recombinant GHSR1a expressed in HEK293F cells by [35S]GTP-gamma-S binding assay
Assay type: functional, cell-based
Measured Kb accompanies every entry in the list below.
measured_parameter: Kb (µM)

molecule="Cc1ccccc1-c1nc2ccc(-c3ccc(Cl)cc3)cc2c(=O)n1CC1CCCN(CCF)C1 (stereo unspecified)" assay_result=0.014
molecule="Cc1ccccc1-c1nc2ccc(Oc3ccc(F)cc3)cc2c(=O)n1CC1CCCN(C(C)C)C1 (stereo unspecified)" assay_result=0.00097
molecule=CC(C)c1nc2ccc(-c3ccc(F)cc3)cc2c(=O)n1C[C@H]1CCCN(C(C)C)C1 assay_result=0.014
molecule="Cc1ccccc1-c1nc2ccc(-c3ccc(Cl)cc3)cc2c(=O)n1CC1CCCN(C2CCC2)C1 (stereo unspecified)" assay_result=0.0027
molecule=CCN1CCC[C@@H](Cn2c(-c3ccccc3C)nc3ccc(-c4ccc(Cl)cc4)cc3c2=O)C1 assay_result=0.25
molecule=CCN1CCC=C(Cn2c(-c3ccccc3C)nc3ccc(-c4ccc(Cl)cc4)cc3c2=O)C1 assay_result=0.036
molecule="CCN1CCCC(Cn2c(-c3ccccc3C)nc3ccc(-c4ccc(Cl)cc4)cc3c2=O)C1 (stereo unspecified)" assay_result=0.0032
molecule=CC(C)c1nc2ccc(-c3ccc(Cl)cc3)cc2c(=O)n1C[C@H]1CCCN(C(C)C)C1 assay_result=0.077
molecule=CC(C)c1nc2ccc(Oc3ccc(F)cc3)cc2c(=O)n1C[C@H]1CCCN(C(C)C)C1 assay_result=0.0076
molecule=Cc1nc2ccc(Oc3ccc(F)cc3)cc2c(=O)n1C[C@H]1CCCN(C(C)C)C1 assay_result=0.011
molecule=CCN1CCC[C@H](Cn2c(-c3ccccc3C)nc3ccc(-c4ccc(Cl)cc4)cc3c2=O)C1 assay_result=0.0028
molecule="Cc1ccccc1-c1nc2ccc(Oc3ccc(F)cc3)cc2c(=O)n1C[C@H]1CCCN(C(C)C)C1 (stereo in doubt; 36)" assay_result=0.00019
molecule="Cc1ccccc1-c1nc2ccc(-c3ccc(Cl)cc3)cc2c(=O)n1CC1CCCNC1 (stereo unspecified)" assay_result=0.013
molecule="CCN1CCCC(Cn2c(-c3ccccc3C)nc3ccc(OC(F)(F)F)cc3c2=O)C1 (stereo unspecified)" assay_result=0.045
molecule="COCCN1CCCC(Cn2c(-c3ccccc3C)nc3ccc(-c4ccc(Cl)cc4)cc3c2=O)C1 (stereo unspecified)" assay_result=0.0064
molecule=CC(C)N1CCC[C@H](Cn2cnc3ccc(Oc4ccc(F)cc4)cc3c2=O)C1 assay_result=0.045
